TESTED ON: Serine/threonine-protein kinase B-raf (Homo sapiens, UniProt P15056)
Sequence (P15056 whole entry): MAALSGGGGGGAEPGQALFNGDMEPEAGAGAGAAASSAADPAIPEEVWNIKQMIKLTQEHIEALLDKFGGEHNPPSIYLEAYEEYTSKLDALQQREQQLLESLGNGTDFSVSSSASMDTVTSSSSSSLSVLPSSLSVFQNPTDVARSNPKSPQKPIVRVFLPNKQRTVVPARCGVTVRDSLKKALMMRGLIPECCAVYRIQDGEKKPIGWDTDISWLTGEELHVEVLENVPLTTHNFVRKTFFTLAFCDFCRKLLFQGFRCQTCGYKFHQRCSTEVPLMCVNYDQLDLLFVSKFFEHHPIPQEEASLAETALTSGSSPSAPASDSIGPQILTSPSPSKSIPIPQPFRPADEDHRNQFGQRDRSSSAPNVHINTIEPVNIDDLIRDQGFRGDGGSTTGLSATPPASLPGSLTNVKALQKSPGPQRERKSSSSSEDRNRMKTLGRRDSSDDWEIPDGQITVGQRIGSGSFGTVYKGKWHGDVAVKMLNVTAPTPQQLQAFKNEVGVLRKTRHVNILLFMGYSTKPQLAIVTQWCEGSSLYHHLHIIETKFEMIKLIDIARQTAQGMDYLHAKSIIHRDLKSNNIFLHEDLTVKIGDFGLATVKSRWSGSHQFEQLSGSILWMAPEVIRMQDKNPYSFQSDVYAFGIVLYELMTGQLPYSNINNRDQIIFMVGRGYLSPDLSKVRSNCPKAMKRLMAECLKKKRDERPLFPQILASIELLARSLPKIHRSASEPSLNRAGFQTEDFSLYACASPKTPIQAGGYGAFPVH
TEST DESCRIPTION: Enzymatic BRAF Kinase Activity Assay
QUANTITY KIND: IC50

input: Could you please provide reported IC50 for Cc1ccc(NC(=O)c2ccnc(C(F)(F)F)c2)cc1-c1cc(N2CCOCC2)c2nc3c(n2c1)CC(O)CC3 (configuration not stated) [US11814384, Example 34] ? Thanks!
output: 1 to 10 nM
